Hey, just so you know, these numbers are from patent US20240101551A1.

- Experimental protocol: Animal pharmacokinetic study
- Assay type: in vivo, rats
- Particulars: rat, po; male rats, single intragastric administration, 5 mg/kg, plasma
Property measured: Cmax (µg/mL)
The answer is to be given in µg/mL; state only the numeric part.

Sample "Cn1cc(-c2nc(N=S(C)(C)=O)ccc2Oc2ccc(F)cc2F)c2cc[nH]c2c1=O" — what was its Cmax?
0.372

---

- Assay system: BRD4 (BD1) (Homo sapiens (Human))
- Experimental protocol: In vitro enzymatic activity assay on BRD4 (BD1), HTRF
- Particulars: GST-BRD4 (BD1, 44-168 aa)
Property measured: IC50
Give the figure together with its unit, number first.

Look at this compound and give its reported IC50. "Cn1cc(-c2nc(N=S(C)(C)=O)ccc2Oc2ccc(F)cc2F)c2cc[nH]c2c1=O"
0.64 nM
